# TEST_PROTOCOL: Study VX-222-102 Part A: VX-222 for 3 days in HCV infected subjects (PK, safety)
# Format: in vivo, human
# CONDITION_NOTES: human, in vivo, 500 mg, 500 mg b.i.d., Day 1, HCV infected subjects; read-out: C12 Geometric Mean
ASSAY_METRIC: concentration at 12 h (ng/mL)
# output: bare number, implied unit ng/mL

I have this compound here, CC1CCC(C(=O)N(c2cc(C#CC(C)(C)C)sc2C(=O)O)C2CCC(O)CC2)CC1 (stereo not shown) , and I need its recorded concentration at 12 h.
767

====

# TEST_PROTOCOL: Study VX-222-102 Part A: VX-222 for 3 days in HCV infected subjects (PK, safety)
# Type: in vivo, human
# CONDITION_NOTES: human, in vivo, 250 mg, 250 mg b.i.d., Day 3, HCV infected subjects; read-out: tmax Median
ASSAY_METRIC: Tmax (h)
# output: bare number, implied unit h

I have this compound here, CC1CCC(C(=O)N(c2cc(C#CC(C)(C)C)sc2C(=O)O)C2CCC(O)CC2)CC1 (stereo not shown) , and I need its recorded Tmax.
4

====

# TEST_PROTOCOL: Study VX-222-102 Part A: VX-222 for 3 days in HCV infected subjects (PK, safety)
# Assay type: in vivo, human
# CONDITION_NOTES: human, in vivo, 250 mg, 250 mg b.i.d., Day 1, HCV infected subjects; read-out: AUC0-12 hr Geometric Mean
ASSAY_METRIC: AUC(0-t) (ng·h/mL)
# output: bare number, implied unit ng·h/mL

I have this compound here, CC1CCC(C(=O)N(c2cc(C#CC(C)(C)C)sc2C(=O)O)C2CCC(O)CC2)CC1 (stereo not shown) , and I need its recorded AUC(0-t).
11700

====

# TEST_PROTOCOL: Study VX-222-002: combination treatment with VX-222 and VX-950 in healthy subjects (PK, safety)
# CONDITION_NOTES: human, plasma, oral, 1000 mg, AUC0-12, VX-222 1000 mg BID alone, Day 10, healthy subjects, fed; geometric mean (CV %)
ASSAY_METRIC: AUC(0-t) (ng·h/mL)
# output: bare number, implied unit ng·h/mL

I have this compound here, CC1CCC(C(=O)N(c2cc(C#CC(C)(C)C)sc2C(=O)O)C2CCC(O)CC2)CC1 (stereo not shown) [VX-222] , and I need its recorded AUC(0-t).
25800

====

# TEST_PROTOCOL: Study VX-222-102 Part A: VX-222 for 3 days in HCV infected subjects (PK, safety)
# Type: in vivo, human
# CONDITION_NOTES: human, in vivo, 750 mg, 750 mg b.i.d., Day 3, HCV infected subjects; read-out: Cmax Geometric Mean
ASSAY_METRIC: Cmax (ng/mL)
# output: bare number, implied unit ng/mL

I have this molecule here, CC1CCC(C(=O)N(c2cc(C#CC(C)(C)C)sc2C(=O)O)C2CCC(O)CC2)CC1 (stereo not shown) , and I need its recorded Cmax.
10300

====

# TEST_PROTOCOL: Study VX-222-102 Part A: VX-222 for 3 days in HCV infected subjects (PK, safety)
# Type: in vivo, human
# CONDITION_NOTES: human, in vivo, 250 mg, 250 mg b.i.d., Day 3, HCV infected subjects; read-out: C12 Geometric Mean
ASSAY_METRIC: concentration at 12 h
Write the numeric value and follow it with the unit.

I have this compound here, CC1CCC(C(=O)N(c2cc(C#CC(C)(C)C)sc2C(=O)O)C2CCC(O)CC2)CC1 (stereo not shown) , and I need its recorded concentration at 12 h.
728 ng/mL
